Values from ChEMBL document CHEMBL1127114

Test system: Protein kinase C alpha type (Homo sapiens)
Run description: Inhibition of [3H]phorbol-12,13-dibutyrate binding to PK-C
Quantity: pKi
Schema: pKi number; meaning minus log10 of the concentration expressed in molar units.

Query :: So what's the measured pKi for this one? CCCCCCCCCCCCCC(=O)O[C@@H]1CC(=O)O[C@H]1CO
Result :: 5.60

###

Test system: Protein kinase C alpha type (Homo sapiens)
Run description: Inhibition of [20-3H]phorbol-12,13-dibutyrate(PDBU) binding to purified PK-C alpha
Can you tell me pKi for the items I'm about to list?
Schema: pKi number; meaning minus log10 of the concentration expressed in molar units.

Query :: So what's the measured pKi for this one? CCCCCCCCCCCCCC(=O)O[C@@H]1CC(=O)O[C@H]1CCO
Result :: 6.06

Query :: So what's the measured pKi for this one? CCCCCCCCCCCCCC(=O)O[C@@H]1CC(=O)O[C@H]1CO
Result :: 5.82
